target-desc: Inadl_9, Q8NI35
Sequence (Q8NI35 1530-1615): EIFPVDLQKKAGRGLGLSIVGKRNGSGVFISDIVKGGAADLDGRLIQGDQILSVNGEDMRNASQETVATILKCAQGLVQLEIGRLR
test-method-notes: holdup assay
Parameters: key: below the threshold = too weak to quantify, mostly under pKd 3.1 to 4
condition-context: plain residues with an end cap or a label only (N-terminal biotin on a linker: ado-ado)

>  <binder>
TKDKVQETQI [LRRC4, Q9HBW1]

>  <pKd>
below the threshold

$$$$
>  <binder>
STYCDYTIEI [FAM71C, Q8NEG0]

>  <pKd>
4.19

$$$$
>  <binder>
KLQNPNQSVV [TYRP1, P17643]

>  <pKd>
below the threshold

$$$$
>  <binder>
GVHSNDHSVV [LPAR1, Q92633]

>  <pKd>
below the threshold

$$$$
>  <binder>
ELKAEDEVQI [DCHS2, Q6V1P9]

>  <pKd>
below the threshold

$$$$
>  <binder>
ATKDKKITTV [EXOC4, Q96A65]

>  <pKd>
3.63

$$$$
>  <binder>
ADEMICITTL [CACNA1D, Q01668]

>  <pKd>
below the threshold

$$$$
>  <binder>
VKQYADVEGF [HNRNPK, P61978;P61978-2]

>  <pKd>
below the threshold

$$$$
